Molecular target: PfHsp70‐xT (Plasmodium falciparum)
Sequence (K7NTP5 entry or part of it): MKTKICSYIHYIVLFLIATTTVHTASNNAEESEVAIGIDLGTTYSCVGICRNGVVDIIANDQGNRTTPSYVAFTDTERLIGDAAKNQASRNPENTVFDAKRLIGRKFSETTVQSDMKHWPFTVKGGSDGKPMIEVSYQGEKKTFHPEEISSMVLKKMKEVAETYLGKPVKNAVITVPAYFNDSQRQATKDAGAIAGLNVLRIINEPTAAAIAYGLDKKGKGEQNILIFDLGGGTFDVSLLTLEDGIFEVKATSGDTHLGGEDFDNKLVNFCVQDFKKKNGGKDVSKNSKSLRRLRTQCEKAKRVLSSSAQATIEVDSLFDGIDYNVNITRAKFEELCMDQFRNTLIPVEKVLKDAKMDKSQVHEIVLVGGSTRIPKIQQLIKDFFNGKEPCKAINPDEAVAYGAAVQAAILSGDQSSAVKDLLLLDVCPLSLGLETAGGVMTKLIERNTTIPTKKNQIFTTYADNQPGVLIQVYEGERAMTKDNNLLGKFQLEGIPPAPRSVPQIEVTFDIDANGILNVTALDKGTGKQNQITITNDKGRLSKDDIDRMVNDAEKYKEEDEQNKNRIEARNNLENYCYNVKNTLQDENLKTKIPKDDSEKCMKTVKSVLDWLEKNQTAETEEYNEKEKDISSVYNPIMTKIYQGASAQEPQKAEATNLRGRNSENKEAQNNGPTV
Assay: SPR peptide substrate binding kinetics
Details: K D, SPR, PfHsp70‐xT ligand, peptide 1.25-20 nM, 25°C, PBS-Tween; 2 mM ADP; mean ± SD
Where no end group is shown, it is not given here.
Measure name: pKd
Scale: negative log10 of molar concentration, which is what pKd denotes.

NRNNTG [NRNNTG]: 8.77

# ---- query substance ----
q: For the substance GFTNNNMYRF [GFTNNNMYRF] , what pKd is on record?
a: 8.85

###

Target: PfHsp70‐x (Plasmodium falciparum, UniProt K7NTP5)
Sequence (K7NTP5 entry or part of it): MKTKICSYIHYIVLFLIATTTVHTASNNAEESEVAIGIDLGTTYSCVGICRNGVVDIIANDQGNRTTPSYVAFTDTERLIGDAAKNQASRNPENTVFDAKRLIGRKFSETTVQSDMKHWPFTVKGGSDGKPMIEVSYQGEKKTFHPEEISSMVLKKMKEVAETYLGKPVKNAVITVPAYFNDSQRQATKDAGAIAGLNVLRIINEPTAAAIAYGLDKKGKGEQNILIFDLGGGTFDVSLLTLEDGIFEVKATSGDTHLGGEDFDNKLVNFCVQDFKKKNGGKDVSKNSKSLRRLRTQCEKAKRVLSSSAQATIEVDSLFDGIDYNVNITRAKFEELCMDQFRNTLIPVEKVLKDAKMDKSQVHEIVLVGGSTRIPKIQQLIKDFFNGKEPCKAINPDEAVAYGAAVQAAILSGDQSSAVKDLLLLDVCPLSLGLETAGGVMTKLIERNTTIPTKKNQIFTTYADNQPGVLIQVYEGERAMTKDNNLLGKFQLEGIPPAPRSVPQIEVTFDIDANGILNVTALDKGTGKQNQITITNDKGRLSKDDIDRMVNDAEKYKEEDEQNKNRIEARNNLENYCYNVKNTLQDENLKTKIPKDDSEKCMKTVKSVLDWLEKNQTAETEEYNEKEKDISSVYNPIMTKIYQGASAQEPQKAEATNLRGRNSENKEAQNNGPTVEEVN
Test: SPR peptide substrate binding kinetics
Settings: K D, SPR, PfHsp70‐x ligand, peptide 1.25-20 nM, 25°C, PBS-Tween; 2 mM ADP; mean ± SD
Where no end group is shown, it is not given here.
Form field: Kd (one value per entry).
Give your result in nM as a bare value.

GFTNNNMYRF [GFTNNNMYRF]: 6.25

Now look at this one.
q: Given the entry NRNNTG [NRNNTG] , report its measured Kd.
a: 4.31

These measurements were taken from paper PMC6282620.
